Assay system: full-length beta-Catenin (Uniprot ID P35222) (Homo sapiens, UniProt P35222)
Construct: 10 nM full-length beta-Catenin (Uniprot ID P35222)
Sequence (P35222 1-781): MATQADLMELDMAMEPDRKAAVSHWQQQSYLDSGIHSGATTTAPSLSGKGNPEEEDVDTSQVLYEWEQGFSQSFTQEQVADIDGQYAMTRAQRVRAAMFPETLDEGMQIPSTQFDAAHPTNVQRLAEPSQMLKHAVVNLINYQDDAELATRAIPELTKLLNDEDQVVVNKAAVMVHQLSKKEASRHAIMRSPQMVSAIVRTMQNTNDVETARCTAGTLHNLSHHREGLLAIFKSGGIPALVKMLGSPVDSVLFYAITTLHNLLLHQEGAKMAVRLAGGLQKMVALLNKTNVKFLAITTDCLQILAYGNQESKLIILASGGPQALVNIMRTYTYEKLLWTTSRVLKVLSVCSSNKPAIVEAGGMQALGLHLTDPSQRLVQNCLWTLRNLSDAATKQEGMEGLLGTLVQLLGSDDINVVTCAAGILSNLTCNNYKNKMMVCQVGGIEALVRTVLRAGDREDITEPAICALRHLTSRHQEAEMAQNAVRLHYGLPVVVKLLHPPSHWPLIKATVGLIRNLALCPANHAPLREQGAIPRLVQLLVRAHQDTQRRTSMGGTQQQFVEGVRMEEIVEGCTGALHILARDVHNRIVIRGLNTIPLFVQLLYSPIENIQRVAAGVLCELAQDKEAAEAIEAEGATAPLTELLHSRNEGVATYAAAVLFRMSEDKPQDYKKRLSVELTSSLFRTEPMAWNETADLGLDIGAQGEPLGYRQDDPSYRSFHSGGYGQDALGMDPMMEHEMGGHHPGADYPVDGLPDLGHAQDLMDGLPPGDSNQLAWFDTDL
Test method notes: Fluorescence polarization IC50 (beta-catenin / 5FAM-TCF4 10-53 competition)
Assay type: binding
Test conditions: fluorescence polarization; read-out: beta-Catenin FP IC50
Measured pIC50 by item
As a rule, pIC50 stands for the negative log10 of the concentration, concentration in M.

Param item = CC[C@H](C)[C@@H]1NC(=O)[C@H](CC(=O)O)NC(=O)[C@]2(CC=CCCCC3(CCCC=CCCCCCC[C@@](C)(C(=O)N[C@@H](Cc4ccccc4OC)C(=O)N[C@@H](Cc4csc5ccccc45)C(=O)N[C@@H](Cc4c[nH]cn4)C(N)=O)NC(=O)[C@H](CC(N)=O)NC(=O)[C@H](Cc4ccccc4)NC(=O)[C@H](C)NC(=O)[C@H](C)NC(=O)[C@H](CC(=O)O)NC(=O)[C@H](CC(=O)O)NC3=O)NC1=O)CCCN2C(C)=O (stereo partly drawn) [I-554] ; retrieve measured pIC50.
7.56

Others:
Param item = CC(=O)N1CCC[C@]12CC=CCCCC[C@@](C)(C(=O)N[C@@H](CC(=O)O)C(=O)N[C@@H](CC(=O)O)C(=O)N[C@@H](C)C(=O)N[C@@H](C)C(=O)N[C@@H](Cc1ccccc1)C(=O)N[C@@H](CC(C)C)C(=O)NC(C)(C)C(=O)N[C@@H](Cc1ccsc1)C(=O)N[C@@H](Cc1csc3ccccc13)C(=O)N[C@@H](CCC(N)=O)C(N)=O)NC(=O)[C@H](CC(C)(C)C)NC(=O)[C@H](CC(=O)O)NC2=O [I-1977] ; retrieve measured pIC50.
5.37

Param item = CC(=O)N1CCC[C@]12CC=CCCCC1(CCCC=CCCCOC(=O)N3CC[C@@](C(=O)N[C@@H](Cc4ccccc4)C(=O)N[C@@H](Cc4csc5ccccc45)C(N)=O)(C3)NC(=O)[C@H](CC(N)=O)NC(=O)[C@H](Cc3ccccc3)NC(=O)[C@H](C)NC(=O)[C@H](CCCCNC(C)C)NC(=O)[C@H](CCC(N)=O)NC(=O)[C@H](CC(=O)O)NC1=O)NC(=O)[C@H](CC1CCCCC1)NC(=O)[C@H](CC(N)=O)NC2=O (stereo partly drawn) ; retrieve measured pIC50.
6.40
